Tested on: ACHN renal
METHOD_NOTES: NCI tumour cell line growth inhibition, 48 h
RECORDED_METRIC: TGI

The following compounds have reported results that may help.
[
  {
    "COMPOUND": "N#CCCN(CCC#N)c1ccc(/C=N\\c2nc(-c3ccccc3)cs2)cc1",
    "TGI": "> 100 µM"
  },
  {
    "COMPOUND": "CN(C)CS/C(N)=N\\C(O)C(Cl)(Cl)Cl (configuration not stated)",
    "TGI": "> 100 µM"
  },
  {
    "COMPOUND": "COc1ccc(C(=O)Cn2c(C(C)=O)nc3ccccc32)cc1",
    "TGI": "> 100 µM"
  }
]

What the record says about COc1cc(Nc2ncc3c(C)nc(-c4cccc(Oc5ccccc5)c4)n3n2)cc(OC)c1OC : TGI is 17.9 µM

What the record says about Nc1ccc(C(=O)NN2C(=O)C(Cl)C2c2ccc([N+](=O)[O-])cc2)cc1 (configuration not stated) : TGI is 27 µM

What the record says about O/N=C1/CCCCCC1NO (configuration not stated) : TGI is > 100 µM

What the record says about NC1=NN(c2ccccc2)C2(c3ccncc3C(=O)O)C1C(N)=NN2c1ccccc1 (configuration not stated) : TGI is > 100 µM

What the record says about O=C1C2C(C(=O)N1c1ccccc1)C1(c3ccccc3)OC2(c2ccccc2)c2ccccc21 (configuration not stated) : TGI is > 100 µM

What the record says about Cc1ccc(-c2nc3c(C(=O)NCCN(C)C)cccc3[nH]2)cc1 : TGI is 28.9 µM

What the record says about CC(=O)O[C@H]1CC[C@H]2[C@@H]3CCC4=C(C(=O)C=CC4(C)OC(C)=O)[C@H]3CC[C@]12C (some centres not stated) : TGI is > 100 µM

What the record says about O=C(Nc1ccc(Cl)cc1)c1ccc([N+](=O)[O-])o1 : TGI is 4.07 µM

What the record says about CC1(C)N=C(N)N=C(N)N1c1ccc(OCC(=O)N2CCOCC2)c(Cl)c1 : TGI is > 100 µM

What the record says about Cc1nc(N)sc1N=Nc1cc(Cl)c([N+](=O)[O-])cc1Cl : TGI is 55.9 µM

What the record says about C=CCOC(=O)CCCCCCCCCCCCCCCOC(=O)c1c(CCC[C@@H](C)O[Si](C)(C)C(C)(C)C)nc(=O)n2c1CC[C@H]2CC1(CC/C=C\[C@H](CC)O[Si](C(C)C)(C(C)C)C(C)C)OCCO1 : TGI is > 100 µM

What the record says about Cc1ccc(NSc2ccccc2[N+](=O)[O-])cc1 : TGI is 23.4 µM

What the record says about COc1cc2c3c(n(CCCCNC(=O)OCC4c5ccccc5-c5ccccc54)c(=O)c2cc1OC)-c1cc2c(cc1C3=O)OCO2 : TGI is 50.4 µM

What the record says about COc1cc(/C=C/c2sc3ccccc3[n+]2C)ccc1N(C)C : TGI is 28.6 µM

What the record says about O=C1/C(=C/c2ccc(Cl)cc2)N=C(c2ccccc2)N1C1Nc2cc3c(cc2S1)NC(N1C(=O)/C(=C/c2ccc(Cl)cc2)N=C1c1ccccc1)S3 (configuration not stated) : TGI is > 100 µM

What the record says about CCN(CC)CCC(=O)N1CCc2c([nH]c3ccccc23)C1c1cccnc1 (configuration not stated) : TGI is > 100 µM

What the record says about CC(C)c1ccc2c(c1)C=C1OC(=O)[C@]3(C)CCC[C@@]2(C)C13 (some centres not stated) : TGI is > 100 µM

What the record says about CC(C)=CCc1ccc(O)c(=O)cc1C(C)C : TGI is > 100 µM

What the record says about c1nc(SSc2ncnc3nc[nH]c23)c2[nH]cnc2n1 : TGI is > 100 µM

What the record says about COCOCc1cc(OCc2ccccc2)c(OC)cc1Br : TGI is > 100 µM

What the record says about Cn1c(=O)c2c(ncn2CCSS(=O)(=O)O)n(C)c1=O : TGI is > 100 µM

What the record says about O=C(NCC(=O)N1CC[C@H](NC2CCC(O)(c3ccc(-c4ncccn4)cn3)CC2)C1)c1cccc(C(F)(F)F)c1 (some centres not stated) : TGI is > 100 µM

What the record says about COc1ccc(/C(=N\O)c2cc(OC)c(OC)c(OC)c2)c(OC)c1N : TGI is > 100 µM

What the record says about Cc1cc(N(CCC#N)CCC#N)ccc1/C(N=Nc1ccccc1)=N\NC(=O)c1ccccc1 : TGI is 41.3 µM

What the record says about CNc1cccnc1/C=N/NC(N)=S : TGI is 1.76 µM
